Entries and their log10 of Kd values follow.
biological target: PLCδ-PH (Rattus norvegicus); construct: initiator methionine (N); made in house; host or cells: Escherichia coli (pET11a, T7 system); assay: Spin-column competition assay for 3H-I(145)P3 binding to PLCδ-PH; details: ratio of molar excess for 50% competition to that of unlabeled I(145)P3, multiplied by 0.2 μM; read-out: KD (μM) by competition assay
Sequence (P10688 20-136): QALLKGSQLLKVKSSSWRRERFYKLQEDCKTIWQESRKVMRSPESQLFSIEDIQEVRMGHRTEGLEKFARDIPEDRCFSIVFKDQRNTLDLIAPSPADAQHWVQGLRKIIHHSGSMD
Response schema: value (number) is log10 of Kd in units of µM.

Here are 5 compounds together with their reported answers.
- Compound: "O=P(O)(O)O[C@@H]1[C@@H](O)[C@H](OP(=O)(O)O)[C@@H](OP(=O)(O)O)[C@@H](O)[C@H]1OP(=O)(O)O"
  log10 of Kd: 0.72
- Compound: "O=P(O)(O)O[C@H]1[C@H](OP(=O)(O)O)[C@@H](OP(=O)(O)O)[C@@H](O)[C@@H](O)[C@@H]1OP(=O)(O)O"
  log10 of Kd: 0.51
- Compound: "O=P(O)(O)O[C@@H]1[C@H](O)[C@H](O)[C@@H](OP(=O)(O)O)[C@H](OP(=O)(O)O)[C@H]1O [I(145)P3, D-myo-inositol 1,4,5-trisphosphate]"
  log10 of Kd: -0.70
- Compound: "O=P(O)(O)OC1C(O)C(O)C(OP(=O)(O)O)C(OP(=O)(O)O)C1O (single isomer, unassigned) [D-I(245)P3]"
  log10 of Kd: 0.67
- Compound: "O=P(O)(O)OC1C(OP(=O)(O)O)C(OP(=O)(O)O)C(OP(=O)(O)O)C(OP(=O)(O)O)C1OP(=O)(O)O (stereo not shown)"
  log10 of Kd: 0.46

Here is another compound to look at.
Query: What value of log10 of Kd on PLCδ-PH (Rattus norvegicus) does O=P(O)(O)O[C@@H]1[C@@H](OP(=O)(O)O)[C@H](OP(=O)(O)O)[C@H](O)[C@H](OP(=O)(O)O)[C@H]1OP(=O)(O)O have?
Response: 0.64
